# experimentDescription: Viability qHTS for spleen associated tyrosine kinase inhibitor (SYKi) naive MV4-11 cells (AID 1963823); note: nearly all actives have a fitted effect of over 40% in size
# setupConditions: MV4-11 AML viability, CellTiter-Glo luminescence, 72 h; series mostly up to 45 µM
Records with an inconclusive call do not appear. The source made the active and inactive calls. Calls come from the whole dose curve; as a rule, active = well fitted cell-killing curve with a large enough effect; inconclusive = small, poorly fitted or top-dose-only effect, or effect the other way; inactive = no such curve, though single readings can be large or run the other way.
Select the correct class. Options are active, inactive and nothing else.

Cc1ncc(CO)c(CN)c1O | inactive
CCCCCN(CCC12CC3CC(CC(C3)C1)C2)C(=O)NCCCc1ccncc1 | active

In the following, a different compound is considered.
Please let me know the test result on file for N[C@@H](CCC(=O)N[C@@H](CS)C(=O)NCC(=O)O)C(=O)O . inactive
